# Tested on: E18 rat cortical neuron-glia co-culture
# Procedure text: myelination (MBP fiber length per Olig2+ nucleus), % of 1 µM DAPT response (DMSO = 0) (% of DAPT); higher = more myelination, active = 50 or more
# Test parameters: 1 µM; treatment time: 8 days (DIV5-DIV13)
# myelination listing for each entry below
Result type: myelination

Compound: CN(C)c1nc(N(C)C)nc(N(C)C)n1
Endpoint result: -3.29 (inactive)
--
Compound: NS(=O)(=O)c1cc2c(cc1C(F)(F)F)NCNS2(=O)=O [Hydroflumethiazide]
Endpoint result: -2.17 (inactive)
--
Compound: O=C(O)CCc1nc(-c2ccccc2)c(-c2ccccc2)o1
Endpoint result: -17 (inactive)
--
Compound: O=C(C1CCCCC1)N1CC(=O)N2CCc3ccccc3C2C1 (stereo not given)
Endpoint result: 7.75 (inactive)
--
Compound: COCCCC/C(=N\OCCN)c1ccc(C(F)(F)F)cc1
Endpoint result: -0.231 (inactive)
--
Compound: CC1(C)S[C@@H]2[C@H](/N=C/N3CCCCCC3)C(=O)N2[C@H]1C(=O)O
Endpoint result: -21.5 (inactive)
--
Compound: CCOC(=O)C1=C(C)NC(C)=C(C(=O)OC)C1c1cccc(Cl)c1Cl (stereo not given)
Endpoint result: 20.4 (inactive)
--
Compound: CCCCCCNC(=O)n1cc(F)c(=O)[nH]c1=O
Endpoint result: -30.6 (inactive)
--
Compound: CCN(Cc1ccncc1)C(=O)C(CO)c1ccccc1 (stereo not given) [Tropicamide]
Endpoint result: -22.3 (inactive)
--
Compound: CCc1cccc2c3c([nH]c12)C(CC)(CC(=O)O)OCC3 (stereo not given)
Endpoint result: -10.5 (inactive)
